- Test system: U87MG cells
- protocolText: Cellular cytotoxicity, Cell Counting Kit-8 (CCK-8) assay
- Format: cell-based, Human
- assaySetup: 72 h, CCK-8, n=5, Table 1
resultType: pIC50
Quick note: pIC50 values are minus log10 of concentrations in mol/L.

Tell me the measured pIC50 of N.N.[Cl][Pt][Cl] [CDDP, cis-diamine dichloroplatinum (II)] , please. 5.59

----------
- System: U87MG cells
- protocolText: Cellular cytotoxicity, Cell Counting Kit-8 (CCK-8) assay
- Type: cell-based, Human
- assaySetup: 72 h, CCK-8, n=6, Table 2 (CDDP number-dependent HSA)
- Procedure: Human glioma cells (U87MG) were obtained from American Type Culture Collection (ATCC; Manassas, VA, USA). Low SPARC-expressing U87MG cells, U87MG-shSPARC, were established from a previous study. (1) U87MG and U87MG-shSPARC cells were added to 96-well plates (4000 cells/well). […] Cell viability was analyzed using a Cell Counting Kit-8 (CCK-8, Dojindo Molecular Technologies, Tokyo, Japan) assay according to the manufacturer's protocols. […]
resultType: IC50 (µM)
Field format: number, assumed µM, no unit text.

Tell me the measured IC50 of N.N.[Cl][Pt][Cl] [CDDP, cis-diamine dichloroplatinum (II)] , please. 4.72
